# assay overview: Components of the Cytosolic LPS Sensing Pathway: Gene Identification via Genome-wide siRNA Screen;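 also: robust z of the log signal after scaling to non-targeting control siRNA wells of the plate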
# condition label: RAW264.7 macrophages, IL-1a HTRF, actives lie on both sides, screened at 100 nM (by protocol), cells primed 5 h with Pam3CSK4 first
# Experimental: Non-canonical inflammasome activation by cytosolic LPS is a critical component of the host response to Gram-negative bacterial infection, however we lack a comprehensive understanding of the cellular processes that control this pathway. […] Lipofectamine RNAiMAX Transfection Reagent ([…]; Invitrogen) was added in […] serum-free, antibiotic-free media to plate wells using a Thermo Scientific Matrix WellMate and Microplate Stacker. […] The plates were read on an EnVision plate reader (PerkinElmer). […]
Out of some 53,000 sequences screened, about 3,700 (7%) were called active. The sample as a whole holds a higher share of actives than the screen did.
property measured: z-score
Reply: number alone, nothing else.

Examples from the recorded data:
sequence data | z-score
GCCAAGGUGCAGAUAAGGUTT against Rhox7a | 2.6
CCACAUCUUUGACGAGUACTT against Rgs16 | -0.145
GGCGAGUUCCAGAUUCUUCTT against Car3 | 1.69
CCUAAACCCAUUCCAGUCUTT against Dpm3 | 0.104
GGCACAGAUGUUUUGAGAATT against Surf4 | -0.954
GGAUGGACUAAAUGAUGAUTT against Ythdf2 | -0.00923

Ask | So what does the record say about z-score for GCUCAUGACACUCUUCCUGTT against Spib ?
Reply | 1.45

Ask | So what does the record say about z-score for GGCAAUGUCUUCUCCAAUATT against Dedd ?
Reply | -0.652
